# reported EC50; entries follow
target: rat AT1aR (Rattus norvegicus, UniProt P25095); experiment: IP1 accumulation assay (IP1 G-protein assay), rat AT1aR; format: cell-based; settings: read-out: pEC50 (converted)
Sequence (P25095 whole entry): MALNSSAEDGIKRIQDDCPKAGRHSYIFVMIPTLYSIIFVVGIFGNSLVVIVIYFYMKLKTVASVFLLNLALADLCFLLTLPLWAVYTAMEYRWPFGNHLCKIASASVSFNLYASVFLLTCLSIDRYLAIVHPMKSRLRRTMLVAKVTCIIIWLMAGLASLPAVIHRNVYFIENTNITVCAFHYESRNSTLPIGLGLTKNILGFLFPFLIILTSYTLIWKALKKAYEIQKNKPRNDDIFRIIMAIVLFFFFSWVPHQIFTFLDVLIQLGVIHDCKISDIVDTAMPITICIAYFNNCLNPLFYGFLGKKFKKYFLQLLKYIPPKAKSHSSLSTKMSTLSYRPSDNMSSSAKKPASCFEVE
Where a SMILES comes first, the peptide text is derived from it. [ ]: non-standard residue; d: D form. Ac6c = NC1(C(=O)O)CCCCC1; Sar = CNCC(=O)O
Measure: EC50

CNCC(=O)N[C@@H](CCCNC(=N)N)C(=O)N[C@H](C(=O)N[C@@H](Cc1ccc(O)cc1)C(=O)NC1(C(=O)N[C@@H](Cc2c[nH]cn2)C(=O)N2CCC[C@H]2C(=O)N[C@@H](CCC(N)=O)C(=O)O)CCCCC1)C(C)C [SEQ ID NO: 38, Sar-Arg-Val-Tyr-cyHex-His-Pro-Gln] (H-[Sar]RVY[Ac6c]HPQ-OH)
> 0.631 nM
CNCC(=O)N[C@@H](CCCNC(=N)N)C(=O)N[C@H](C(=O)N[C@@H](Cc1ccc(O)cc1)C(=O)NC1(C(=O)N[C@@H](Cc2c[nH]cn2)C(=O)N2CCC[C@H]2C(=O)N[C@@H](Cc2c[nH]cn2)C(=O)O)CCCCC1)C(C)C [SEQ ID NO: 37, Sar-Arg-Val-Tyr-cyHex-His-Pro-His] (H-[Sar]RVY[Ac6c]HPH-OH)
> 0.631 nM

----------
# reported pEC50; entries follow
target: rat AT1aR (Rattus norvegicus); assay: IP1 accumulation assay (IP1 G-protein assay), rat AT1aR; format: cell-based; conditions: read-out: EC50
pEC50: −log10 of the molar value. Where a SMILES comes first, the peptide text is derived from it. [ ]: non-standard residue; d: D form. Ac6c = NC1(C(=O)O)CCCCC1; Sar = CNCC(=O)O
Measure: pEC50

CNCC(=O)N[C@@H](CCCNC(=N)N)C(=O)N[C@H](C(=O)N[C@@H](Cc1ccc(O)cc1)C(=O)NC1(C(=O)N[C@@H](Cc2c[nH]cn2)C(=O)N2CCC[C@H]2C(=O)N[C@@H](CCSC)C(=O)O)CCCCC1)C(C)C [SEQ ID NO: 16, Sar-Arg-Val-Tyr-cyHex-His-Pro-Met] (H-[Sar]RVY[Ac6c]HPM-OH)
< 9.22
CNCC(=O)N[C@@H](CCCNC(=N)N)C(=O)N[C@H](C(=O)N[C@@H](Cc1ccc(O)cc1)C(=O)NC1(C(=O)N[C@@H](Cc2c[nH]cn2)C(=O)N2CCC[C@H]2C(=O)N[C@@H](Cc2c[nH]cn2)C(=O)O)CCCCC1)C(C)C [SEQ ID NO: 37, Sar-Arg-Val-Tyr-cyHex-His-Pro-His] (H-[Sar]RVY[Ac6c]HPH-OH)
< 9.22
CNCC(=O)N[C@@H](CCCNC(=N)N)C(=O)N[C@H](C(=O)N[C@@H](Cc1ccc(O)cc1)C(=O)NC1(C(=O)N[C@@H](Cc2c[nH]cn2)C(=O)N2CCC[C@H]2C(=O)N[C@@H](Cc2ccccc2)C(=O)O)CCCCC1)C(C)C [SEQ ID NO: 17, Sar-Arg-Val-Tyr-cyHex-His-Pro-Phe] (H-[Sar]RVY[Ac6c]HPF-OH; N-terminus and C-terminus assumed)
< 9.22

----------
molecular target: rat AT1aR (Rattus norvegicus, UniProt P25095); assay: beta-arrestin2 recruitment assay (PathHunter), rat AT1aR; assay type: cell-based; conditions: 1 h, read-out: Span (relative to hAngII)
Where a SMILES comes first, the peptide text is derived from it. [ ]: non-standard residue; d: D form. Aib = CC(C)(N)C(=O)O; Sar = CNCC(=O)O
Measure: Emax

CNCC(=O)N[C@@H](CCCNC(=N)N)C(=O)N[C@H](C(=O)N[C@@H](Cc1ccc(O)cc1)C(=O)NC1(C(=O)N[C@@H](Cc2c[nH]cn2)C(=O)N2CCC[C@H]2C(=O)N[C@H](C)C(=O)O)CCCC1)C(C)C
< 105%
CNCC(=O)N[C@@H](CCCNC(=N)N)C(=O)N[C@H](C(=O)N[C@@H](Cc1ccc(O)cc1)C(=O)NC(C)(C)C(=O)N[C@@H](Cc1c[nH]cn1)C(=O)N1CCC[C@H]1C(=O)N[C@H](C(=O)O)[C@@H](C)O)C(C)C [SEQ ID NO: 40, Sar-Arg-Val-Tyr-AA01-His-Pro-Thr] (H-[Sar]RVY[Aib]HPT-OH)
< 105%
CNCC(=O)N[C@@H](CCCNC(=N)N)C(=O)N[C@H](C(=O)N[C@@H](Cc1ccc(O)cc1)C(=O)NC(C)(C)C(=O)N[C@@H](Cc1c[nH]cn1)C(=O)N1CCC[C@H]1C(=O)N[C@H](C(=O)O)C(C)C)C(C)C [SEQ ID NO: 33, Sar-Arg-Val-Tyr-AA01-His-Pro-Val] (H-[Sar]RVY[Aib]HPV-OH)
< 105%
